Molecular target: Plasmodium falciparum Hsp70-x (full length) (Plasmodium falciparum)
Test: SPR; PfHsp70-x or PfHsp70-xT immobilised on ProteOn GLC chips as ligands; peptides as analytes at 1.25-20 nM, 50 uL/min; 25 °C; PBS-Tween; with 2 mM ATP
Please go through the items and note down their koff.
Could you give me the number in s⁻¹? Just the number is fine.

# binder NRNNTG [peptide NRNNTG] ; its koff = 1.01e-06

# binder NRLLTG [peptide NRLLTG] ; its koff = 1.01e-05

# binder ALLLMYRR [peptide ALLLMYRR] ; its koff = 1.6e-06

# binder ANNNMYRR [peptide ANNNMYRR] ; its koff = 0.00567
